Test system: CDC2L1;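 note: KINOMEscan kinase panel screen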
Construct: gene CDK11B
protocol.conditions: concentration: 1 μM, replicates: in singlicate; n = 1
readout.kind: %Inh

Lookup: Tell me measured %Inh for "Cc1ccc(C(=O)N2CC[C@@H](O)C2)cc1-n1c(C)cc(OCc2ccc(F)cc2F)c(Br)c1=O" please.
Found: 0%

Lookup: Tell me measured %Inh for "COc1cc2c(cc1OCCN1CCNCC1)ncc1c3ccc(C#N)cc3[nH]c21" please.
Found: 14%

Lookup: Tell me measured %Inh for "Cl.NC(=O)c1cccc(Nc2nccc(Nc3ccc(Oc4c(Cl)cccc4Cl)c(Cl)c3)n2)c1" please.
Found: 0%

New cases:
Lookup: Tell me measured %Inh for "COc1cccc(C2=C(Nc3ccc(Cl)c(C(=O)O)c3)C(=O)NC2=O)c1" please.
Found: 0%

Lookup: Tell me measured %Inh for "O=c1[nH]cc(-c2ccc(N3CCOCC3)cc2)c2sc(-c3cn[nH]c3)cc12" please.
Found: 4%

Lookup: Tell me measured %Inh for "Cc1ccc(S(=O)(=O)Nc2ccc(Nc3nccc(Nc4cccc5[nH]ncc45)n3)cc2)cc1" please.
Found: 0%

Lookup: Tell me measured %Inh for Cl.Cl.NCC(NC(=O)c1cc(-c2ccccc2)c(-c2ccnc3[nH]ccc23)s1)c1ccccc1 (centres unmarked) please.
Found: 0%

Lookup: Tell me measured %Inh for "O=C(Nc1cccc(Oc2ccc3nc(NC(=O)C4CC4)cn3n2)c1)c1ccccc1C(F)(F)F" please.
Found: 0%

Cited source for all entries: paper PMC5540273
